Where do the numbers come from? From ChEMBL document CHEMBL4431303.

Readings of pIC50 for the listed compounds
# Method notes: Antioxidant activity after 5 mins by NBT assay
# Assay type: functional
pIC50: −log10 of the molar value.
Measurement label: pIC50

compound=COC1=CC(=O)c2c(O)c3c(c(O)c2C1=O)[C@@H](OC)[C@H](C)OC3=O measurement_label=pIC50 reported_value=5.21
compound="O=C1O[C@H]([C@@H](O)CO)C(O)=C1O [ASCORBIC ACID]" measurement_label=pIC50 reported_value=4.66
compound=COC1=CC(=O)c2c(O)c3c(c(O)c2C1=O)[C@@H]1O[C@@H](C)C[C@@H]1OC3=O measurement_label=pIC50 reported_value=4.30
compound=COC1=CC(=O)c2c(O)c3c(c(O)c2C1=O)C[C@H](C)OC3=O measurement_label=pIC50 reported_value=5.72

###

# System: B16
# Method notes: Cytotoxicity against mouse B16 cells assessed as cell growth inhibition incubated for 72 hrs by MTT assay
# Format: functional, cell-based
# Assay setup: B16, 72 h
pIC50: −log10 of the molar value.
Measured pIC50, listed per entry for reference.
Measurement label: pIC50

compound="COc1cccc2c1C(=O)c1c(O)c3c(c(O)c1C2=O)C[C@@](O)(C(=O)CO)C[C@@H]3O[C@H]1C[C@H](N)[C@H](O)[C@H](C)O1 [DOXORUBICIN]" measurement_label=pIC50 result_operator== reported_value=6.37
compound=COC1=CC(=O)c2c(O)c3c(c(O)c2C1=O)C[C@H](C)OC3=O measurement_label=pIC50 result_operator== reported_value=5.62
compound="CC[C@]1(O)C[C@H]2CN(CCc3c([nH]c4ccccc34)[C@@](C(=O)OC)(c3cc4c(cc3OC)N(C=O)[C@H]3[C@@](O)(C(=O)OC)[C@H](OC(C)=O)[C@]5(CC)C=CCN6CC[C@]43[C@@H]65)C2)C1 [VINCRISTINE]" measurement_label=pIC50 result_operator== reported_value=6.30
compound=COC1=CC(=O)c2c(O)c3c(c(O)c2C1=O)[C@@H]1O[C@@H](C)C[C@@H]1OC3=O measurement_label=pIC50 result_operator=< reported_value=5.00
